- experimentSummary: refractive index (Na D-line) (dimensionless)
- settings: 298.15 K; 101.33 kPa; Liquid; Standard Abbe refractometry
# reported refractive index; entries follow
readout: refractive index

>  <sampleSmiles>
c1ccsc1

>  <resultValue>
1.52527

$$$$
>  <sampleSmiles>
CCCCCCC

>  <resultValue>
1.38519

$$$$
>  <sampleSmiles>
CC(C)=O

>  <resultValue>
1.356

$$$$
>  <sampleSmiles>
CCCO

>  <resultValue>
1.38375

$$$$

###

- settings: 298.15 K; 101.33 kPa; Liquid; Vibrating tube method

>  <compound>
CCCCCC[n+]1ccc(C#N)cc1.O=S(=O)([N-]S(=O)(=O)C(F)(F)F)C(F)(F)F [1-hexyl-4-cyanopyridinium bis(trifluoromethylsulfonyl)imide]

>  <unitsOfMeasure>
kg/m3

>  <mass density>
1407

$$$$
>  <compound>
CCCC[n+]1cccc(C#N)c1.O=S(=O)([N-]S(=O)(=O)C(F)(F)F)C(F)(F)F [1-butyl-3-cyanopyridinium bis(trifluoromethylsulfonyl)imide]

>  <unitsOfMeasure>
kg/m3

>  <mass density>
1479.79

$$$$
>  <compound>
CCCCCCC

>  <unitsOfMeasure>
kg/m3

>  <mass density>
679.48

$$$$
>  <compound>
CCCC[n+]1ccc(C#N)cc1.O=S(=O)([N-]S(=O)(=O)C(F)(F)F)C(F)(F)F [1-butyl-4-cyanopyridinium bis(trifluoromethylsulfonyl)imide]

>  <unitsOfMeasure>
kg/m3

>  <mass density>
1474.23

$$$$
>  <compound>
c1ccsc1

>  <unitsOfMeasure>
kg/m3

>  <mass density>
1058.64

$$$$
>  <compound>
CC(C)=O

>  <unitsOfMeasure>
kg/m3

>  <mass density>
785.23

$$$$
>  <compound>
CCCO

>  <unitsOfMeasure>
kg/m3

>  <mass density>
799.52

$$$$
